targetDesc: PSA (human, UniProt P07288)
protocolText: SPR, 1 uM Zn2+
Bridge positions count the residues as written; N and C are the ends. Ends that are not written are not given here.
property: pKd
# log scale: pKd equals minus log10 of the concentration in mol/L

Answer with reported pKd of CVFTSDYAFC (disulfide 1-10 (inferred); also: GST fusion, site not given here) [GST-A-1]
5.59

Answer with reported pKd of CVFAHNYDYLVC (disulfide 1-12 (inferred); also: GST fusion, site not given here) [GST-B-2]
5.51
